The entries below come with measured yeast fitness values attached.
B1: tRNA (parent)
chain: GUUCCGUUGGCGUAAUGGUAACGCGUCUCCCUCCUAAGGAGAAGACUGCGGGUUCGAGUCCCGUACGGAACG

Variants of: B1
METHOD NOTES: yeast fitness relative to wild type (ratio to wild type); higher = fitter; tRNA-Arg(CCU), competitive growth, 37 C, YPD
Variants at the floor of the assay were thinned out.

Worked cases, answers included:
BIOSEQUENCE: GUUCGGUUGGCGUAAUCGUAACCCGUCUCCCUCCUAAGGAGAAGACUGCGGGUUCGAGUCCCGUACGGAACG [C5G G17C G23C]
yeast fitness: ≤ 0.5
--
BIOSEQUENCE: GUUCCGUUGGCGUAAUCGUAACGCAUCUCCCUCCUAAGGAGAAGACUGAGGGUUCGAGUCCCGUACGGUACG [G17C G25A C49A A69U]
yeast fitness: ≤ 0.5

Field yeast fitness (entry GUUCAGUUGGCGUGAUGGUAACGCGUCUGCCUCCUAAGGAGAAGACUGCGGGUUUGAGUCCCGUACGGAUCG [C5A A14G C29G C55U A70U] ) reads ≤ 0.5

// yeast fitness lookup, variant = GUUCCGUUGGGGUAGUGGUAACGGGUCUCCCUCCUAAGGAGAAGAGUGCGGGUUCGAGUCCCGUACAGAACG [C11G A15G C24G C46G G67A] , result: ≤ 0.5

Sample GUUCCGUUCGCGUUAUGGUAACGCGUCUCCCUCCUAAGGAGAAGACUCCGGGUUCGAGUCCCGGACGGAACG [G9C A14U G48C U64G] ; yeast fitness observed: ≤ 0.5

Please fill in: yeast fitness reported for GUUCCGUUGGCGUGCUGGUAACGCGUCUCCCUCCUAAGGAGAAGAAUGCGGGUUCGAGUCCCGUACGGUACG [A14G A15C C46A A69U] = ≤ 0.5

The measured yeast fitness associated with GUUCCGUUGGCGUAAUGGUCACGCGUCUCCCUCCUAAGGAGACGACUGAGGGUACGAAUACCGUACGGAACG [A20C A43C C49A U54A G58A C60A] reads ≤ 0.5

Reported yeast fitness of GGUCCGUUGGCGUAAUGGUAUCGCGUCUCCCUCCUUAGGAGAAGUCUGCGGGUUCGAGUCCCGUUCGGAUCG [U2G A21U A36U A45U A65U A70U] : ≤ 0.5

The value of yeast fitness measured for the variant GAUCCGUUGGCGUAAUGGUAACGCGUCUCCCUCCUGAGGAGAAGCCUGCGGGUUCGAGUCCCGUACGCAACG [U2A A36G A45C G68C] turned out to be ≤ 0.5

The reported value for GUUGCGUUGGCGUAAUGGUAACGCGUCUCCCUCCUAAGGAGAAGACUGCGCGUUCGAGUCCCGAACGGAACG [C4G G51C U64A] in terms of yeast fitness is ≤ 0.5

Please fill in: yeast fitness reported for GUUCCCUUGGCGUAAUGGUAACGCGUCUCCCUCCUAAGGAGAAGACUGCGGGUUCGAGUGCCGUUCGGAACG [G6C C60G A65U] = ≤ 0.5
